Source of measurements: patent US20230285583A1

This section presents binders with their documented In Vitro Activity Compared to Native Peptide (%) vs. GLP-1 (relative titer from cAMP EC50) values.
molecular target: human GLP-1 receptor (human, UniProt P43220 24-463); test: cell-based or functional assay
Sequence (P43220 24-463): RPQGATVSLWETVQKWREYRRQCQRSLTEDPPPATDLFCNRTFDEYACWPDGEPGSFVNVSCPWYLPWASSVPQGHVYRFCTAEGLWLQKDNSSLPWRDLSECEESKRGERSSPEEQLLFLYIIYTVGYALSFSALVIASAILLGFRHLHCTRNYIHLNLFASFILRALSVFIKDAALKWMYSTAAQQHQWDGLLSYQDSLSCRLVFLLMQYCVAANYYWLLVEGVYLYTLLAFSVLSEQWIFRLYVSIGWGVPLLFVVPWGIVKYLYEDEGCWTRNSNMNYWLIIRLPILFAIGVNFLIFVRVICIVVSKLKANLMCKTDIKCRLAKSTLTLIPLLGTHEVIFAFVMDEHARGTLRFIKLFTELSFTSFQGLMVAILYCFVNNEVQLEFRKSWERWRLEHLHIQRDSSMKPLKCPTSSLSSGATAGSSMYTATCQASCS
Bridge positions count the residues as written; N and C are the ends. Square brackets hold non-standard residues; d marks the D form. Ends that are not written are not given here. Aib = CC(C)(N)C(=O)O
TEST READOUT: In Vitro Activity Compared to Native Peptide (%) vs. GLP-1 (relative titer from cAMP EC50)

BINDER	UNIT SPEC	VAL
H[Aib]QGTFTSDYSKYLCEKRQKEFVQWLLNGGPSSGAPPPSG (bridge 16-20; not fully specified (bridges)) [trigonal agonist of SEQ ID NO: 7]	%	37.4
Y[Aib]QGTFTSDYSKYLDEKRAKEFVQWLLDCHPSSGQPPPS (bridge 16-20; not fully specified (bridges); ends not checked) [trigonal agonist of SEQ ID NO: 41]	%	10.5
Y[Aib]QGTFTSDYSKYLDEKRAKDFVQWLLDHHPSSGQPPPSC (bridge 16-20; not fully specified (bridges)) [trigonal agonist of SEQ ID NO: 31]	%	10.3
Y[Aib]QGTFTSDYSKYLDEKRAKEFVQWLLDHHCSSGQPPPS (bridge 16-20; not fully specified (bridges)) [trigonal agonist of SEQ ID NO: 10]	%	12.6
H[Aib]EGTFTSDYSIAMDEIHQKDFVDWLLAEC (bridge 16-20; not fully specified (bridges)) [trigonal agonist of SEQ ID NO: 15]	%	30.6
